The values you see were collected from patent US12201641B2.

Assay: in vitro
Experimental parameters: human, Caco-2, pH 7.4, Caco-2 Permeability (Papp) (A→B)

{"Molecule": "NS(=O)(=O)c1cc2c(cc1Cl)N=CNS2(=O)=O [Chlorothiazide, reference compound]", "Papp A→B at 120 min, 5 μg/mL, ×10⁻⁶ cm/s": 4.2}

---

Assay: Unidirectional (A→B) permeability across Caco-2 cell monolayer
Experimental parameters: human, Caco-2, pH 7.4, Caco-2 Permeability (Papp) (A→B), compound alone, 1 μg/mL in HBSS buffer, pH 7.4, 120 min

{"Compound": "CC1=C(CO)C(=O)O[C@@H]([C@@H](C)[C@H]2CC[C@H]3[C@@H]4C[C@H]5O[C@]56[C@@H](O)C=CC(=O)[C@]6(C)[C@H]4CC[C@]23C)C1 [Withaferin A, withaferin A]", "Papp A→B at 120 min, 1 μg/mL": "4.55 ×10⁻⁶ cm/s"}
{"Compound": "CC1=C(C)C(=O)O[C@@H]([C@@H](C)[C@H]2CC[C@H]3[C@@H]4CC=C5C[C@@H](O[C@@H]6O[C@H](CO[C@@H]7O[C@H](CO)[C@@H](O)[C@H](O)[C@H]7O)[C@@H](O)[C@H](O)[C@H]6O)C[C@H](O)[C@]5(C)[C@H]4CC[C@]23C)C1 [Withanolside V, withanoside V]", "Papp A→B at 120 min, 1 μg/mL": "4.03 ×10⁻⁶ cm/s"}
{"Compound": "CC1=C(CO)C(=O)O[C@@H]([C@@H](C)[C@H]2CC[C@H]3[C@@H]4CC=C5C[C@@H](O[C@@H]6O[C@H](CO[C@@H]7O[C@H](CO)[C@@H](O)[C@H](O)[C@H]7O)[C@@H](O)[C@H](O)[C@H]6O)C[C@H](O)[C@]5(C)[C@H]4CC[C@]23C)C1 [Withanoside IV, withanoside IV]", "Papp A→B at 120 min, 1 μg/mL": "5.42 ×10⁻⁶ cm/s"}
{"Compound": "CC1=C(C)C(=O)O[C@@H]([C@](C)(O)[C@H]2CC[C@H]3[C@@H]4[C@@H]5O[C@@H]5[C@@]5(O)CC=CC(=O)[C@]5(C)[C@H]4CC[C@]23C)C1 [Withanolide A, withanolide A]", "Papp A→B at 120 min, 1 μg/mL": "3.23 ×10⁻⁶ cm/s"}
